Hey, just so you know, these numbers are from patent US8053439B2.

# reported log10 of IC50; entries follow
tested on: HL60 cells; assay: Inhibition effect of HL60 cell line growth (MTT, 3 days); type: cell-based; conditions: Homo sapiens, HL-60, 72 h, read-out: HL60 Growth Inhibition
Log10 applied to IC50; unit prior to transform: µM.

I am curious: what log10 of IC50 value has been reported for `COc1cc(C(=O)c2cc(-c3ccco3)cc(OC)c2OC)cc(OC)c1OC` ?
-0.84

`COc1cc(C(=O)c2ccc(-c3cscn3)cc2-n2cncn2)cc(OC)c1OC` , same question.
-1.10

`COc1ccc(-c2cccnc2)cc1C(=O)c1cc(OC)c(OC)c(OC)c1` , same question.
-0.89

`COc1ccc(-c2nccs2)cc1C(=O)c1cc(OC)c(OC)c(OC)c1` , same question.
-2.00

`COc1ccc(-c2ncco2)cc1C(=O)c1cc(OC)c(OC)c(OC)c1` , same question.
-2.00

`COc1cc(C(=O)c2cc(-c3nccs3)ccc2N)cc(OC)c1OC` , same question.
-1.52

`COc1ccc(-c2ccc(N)c(C(=O)c3cc(OC)c(OC)c(OC)c3)c2)cc1` , same question.
-0.43

`COc1cc(C(=O)c2ccc(-c3cccnc3)cc2-n2cncn2)cc(OC)c1OC` , same question.
-1.00
